These entries and their values trace back to ChEMBL document CHEMBL1156601.

biological target: Kappa-type opioid receptor (Homo sapiens); assay: Agonist activity at human kappa opioid receptor expressed in CHO-K1 cells by [35S]GTPgamma binding assay
Sequence (P41145 whole entry): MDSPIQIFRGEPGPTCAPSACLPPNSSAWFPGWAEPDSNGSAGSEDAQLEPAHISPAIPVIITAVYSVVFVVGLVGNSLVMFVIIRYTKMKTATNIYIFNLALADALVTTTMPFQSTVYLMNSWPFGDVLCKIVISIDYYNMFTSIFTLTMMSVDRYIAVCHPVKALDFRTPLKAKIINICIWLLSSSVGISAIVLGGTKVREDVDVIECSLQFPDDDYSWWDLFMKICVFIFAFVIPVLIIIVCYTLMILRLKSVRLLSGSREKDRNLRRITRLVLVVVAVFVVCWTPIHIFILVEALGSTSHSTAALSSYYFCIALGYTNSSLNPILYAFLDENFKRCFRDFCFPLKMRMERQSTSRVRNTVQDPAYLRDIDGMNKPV
In plain terms, low EC50, meaning strictly below 600 nM, gives 1.0, and everything else gives 0.0.

- molecule: "COc1cccc(S(=O)(=O)N2CCN(C(=O)Cn3c(=O)oc4ccc(Cl)cc43)C(CN3CCCC3)C2)c1 (stereo not drawn)"
  classification: 1.0
- molecule: "O=C(Cc1csc2ccc(Cl)cc12)N1CCN(c2ccccc2)CC1CN1CCCC1 (stereo not drawn)"
  classification: 1.0
- molecule: "COc1cccc(N2CCN(C(=O)CN(C)c3ccc(Cl)c(Cl)c3)C(CN3CCCC3)C2)c1 (stereo not drawn)"
  classification: 1.0
- molecule: "O=C(Cc1cccc2ccccc12)N1CCN(c2ccccc2)CC1CN1CCCC1 (stereo not drawn)"
  classification: 1.0
- molecule: "COc1ccc(Br)cc1S(=O)(=O)N1CCN(C(=O)Cn2c(=O)oc3ccc(Cl)cc32)C(CN2CCCC2)C1 (stereo not drawn)"
  classification: 0.0
- molecule: "CN(CC(=O)N1CCN(C(=O)c2ccccc2)CC1CN1CCCC1)c1ccc(Cl)c(Cl)c1 (stereo not drawn)"
  classification: 0.0
- molecule: "CN(CC(=O)N1CCN(c2cccc(Cl)c2)CC1CN1CCCC1)c1ccc(Cl)c(Cl)c1 (stereo not drawn)"
  classification: 1.0
- molecule: "O=C(O)c1ccc(S(=O)(=O)N2CCN(C(=O)Cn3c(=O)oc4ccc(Cl)cc43)C(CN3CCCC3)C2)cc1O (stereo not drawn)"
  classification: 0.0
- molecule: "CN(CC(=O)N1CCN(C(=O)c2ccncc2)CC1CN1CCCC1)c1ccc(Cl)c(Cl)c1 (stereo not drawn)"
  classification: 0.0
- molecule: "CN(CC(=O)N1CCN(S(=O)(=O)c2ccccc2)CC1CN1CCCC1)c1ccc(Cl)c(Cl)c1 (stereo not drawn)"
  classification: 1.0
- molecule: "COc1ccc(S(=O)(=O)N2CCN(C(=O)Cn3c(=O)oc4ccc(Cl)cc43)C(CN3CCCC3)C2)cc1OC (stereo not drawn)"
  classification: 1.0
- molecule: "COc1cccc(S(=O)(=O)N2CCN(C(=O)CN(C)c3ccc(Cl)c(Cl)c3)C(CN3CCCC3)C2)c1 (stereo not drawn)"
  classification: 1.0
- molecule: "O=C(Cn1c(=O)oc2ccc(Cl)cc21)N1CCN(S(=O)(=O)c2cccc(C(F)(F)F)c2)CC1CN1CCCC1 (stereo not drawn)"
  classification: 0.0
- molecule: "CN(CC(=O)N1CCN(S(=O)(=O)c2ccc(Cl)cc2)CC1CN1CCCC1)c1ccc(Cl)c(Cl)c1 (stereo not drawn)"
  classification: 0.0
- molecule: "CN(CC(=O)N1CCN(c2ccccc2)CC1CN1CCCC1)c1ccc(Cl)c(Cl)c1 (stereo not drawn)"
  classification: 1.0
- molecule: "CN(CC(=O)N1CCN(S(=O)(=O)c2cccc(Cl)c2)CC1CN1CCCC1)c1ccc(Cl)c(Cl)c1 (stereo not drawn)"
  classification: 1.0
- molecule: "N#Cc1cccc(S(=O)(=O)N2CCN(C(=O)Cn3c(=O)oc4ccc(Cl)cc43)C(CN3CCCC3)C2)c1 (stereo not drawn)"
  classification: 0.0
- molecule: "O=C(Cn1c(=O)oc2ccccc21)N1CCN(c2ccccc2)CC1CN1CCCC1 (stereo not drawn)"
  classification: 1.0

----------
molecular target: Kappa-type opioid receptor (Homo sapiens); experiment: Agonist activity at human kappa opioid receptor expressed in CHO-K1 cells by [35S]GTPgamma binding assay; assay type: functional, cell-based
pEC50: −log10 of the molar value.
Parameter pEC50: see the listing below.

- compound: "CN(CC(=O)N1CCN(C(=O)c2cccc(Cl)c2)CC1CN1CCCC1)c1ccc(Cl)c(Cl)c1 (configuration not stated)"
  inequality symbol: "<"
  pEC50: 5.00
- compound: "O=C(Cn1c(=O)oc2ccc(Cl)cc21)N1CCN(S(=O)(=O)c2ccccc2)CC1CN1CCCC1 (configuration not stated)"
  inequality symbol: "="
  pEC50: 6.10
- compound: "COc1ccc(C(=O)N2CCN(C(=O)CN(C)c3ccc(Cl)c(Cl)c3)C(CN3CCCC3)C2)cc1OC (configuration not stated)"
  inequality symbol: "<"
  pEC50: 5.00
- compound: "O=C(Cn1c(=O)oc2ccc(Cl)cc21)N1CCN(S(=O)(=O)c2cc(C(F)(F)F)ccc2Cl)CC1CN1CCCC1 (configuration not stated)"
  inequality symbol: "="
  pEC50: 6.00
- compound: "CN(CC(=O)N1CCN(S(=O)(=O)c2ccc(F)c(F)c2)CC1CN1CCCC1)c1ccc(Cl)c(Cl)c1 (configuration not stated)"
  inequality symbol: "="
  pEC50: 6.40
- compound: "CC(=O)Nc1ccc(S(=O)(=O)N2CCN(C(=O)Cn3c(=O)oc4ccc(Cl)cc43)C(CN3CCCC3)C2)cc1 (configuration not stated)"
  inequality symbol: "="
  pEC50: 5.89
- compound: "CN(CC(=O)N1CCN(S(C)(=O)=O)CC1CN1CCCC1)c1ccc(Cl)c(Cl)c1 (configuration not stated)"
  inequality symbol: "="
  pEC50: 8.52
